assay: MTT-ESTA assay of cell metabolic activity, 2D HDF cultures; format: cell-based, human; details: human, normal human dermal fibroblasts (HDF), 2D monolayer culture, Treatment 10^−4; 24 h exposure; HDF
Test Readout: viability at 24 h

| Molecule | Observed |
| --- | --- |
| CC(C)Cc1ccc(C(C)C(=O)[O-])cc1.[Na+] (stereo not shown) [Ibuprofen Sodium Salt] | 98.2% |

---

assay: MTT-ESTA assay of cell metabolic activity, 2D HDF cultures; type: cell-based, human; conditions: human, normal human dermal fibroblasts (HDF), 2D monolayer culture, Treatment 10^−3; 24 h exposure; HDF

| Compound | viability at 24 h |
| --- | --- |
| CC(C)Cc1ccc(C(C)C(=O)[O-])cc1.[Na+] (stereo not shown) [Ibuprofen Sodium Salt] | 90.3% |
